Data origin, for the record: ChEMBL document CHEMBL6096659

- Test system: HEK293T
- PROTOCOL DESCRIPTION: Inhibition of TEAD transcriptional activity in HEK293T cells transfected with 8xGTIIC-luciferase assessed as residual activity at 10 uM incubated for 24 hrs by luciferase reporter assay relative to control
- Format: cell-based
- STATED CONDITIONS: Homo sapiens
Consider the following compounds and their measured Activity readings.
PROPERTY NAME: Activity (%)

[
  {
    "COMPOUND": "c1ccc(-c2ccc(COc3ccc4[nH]ccc4c3)cc2)cc1",
    "UNIT NAME": "%",
    "OBSERVED MEASUREMENT": 82
  },
  {
    "COMPOUND": "CS(=O)(=O)NCCn1ccc2cc(OCc3ccccc3)ccc21",
    "UNIT NAME": "%",
    "OBSERVED MEASUREMENT": 53
  },
  {
    "COMPOUND": "O=C(CCl)NCCCn1ccc2cc(OCc3ccccc3)ccc21",
    "UNIT NAME": "%",
    "OBSERVED MEASUREMENT": 16
  },
  {
    "COMPOUND": "CC(O)CCc1c[nH]c2ccc(OCc3ccccc3)cc12 (stereo unspecified)",
    "UNIT NAME": "%",
    "OBSERVED MEASUREMENT": 57
  },
  {
    "COMPOUND": "OCCc1c[nH]c2ccc(OCc3ccccc3)cc12",
    "UNIT NAME": "%",
    "OBSERVED MEASUREMENT": 43
  },
  {
    "COMPOUND": "C=CC(=O)NCCn1ccc2cc(OCc3ccccc3)ccc21",
    "UNIT NAME": "%",
    "OBSERVED MEASUREMENT": 60
  }
]

###

- System: HEK293T
- PROTOCOL DESCRIPTION: Inhibition of TEAD transcriptional activity in HEK293T cells transfected with 8xGTIIC-luciferase assessed as residual activity at 10 uM incubated for 24 hrs by luciferase reporter assay relative to control
- Assay type: cell-based
- STATED CONDITIONS: Homo sapiens
Consider the following molecules and their measured Activity readings.

[
  {
    "MOL": "O=C(CCl)NCCc1c[nH]c2ccc(OCc3ccccc3)cc12",
    "Activity (%)": 27
  },
  {
    "MOL": "C=CS(=O)(=O)NCCc1c[nH]c2ccc(OCc3ccccc3)cc12",
    "Activity (%)": 10
  },
  {
    "MOL": "COC(=O)Cn1ccc2cc(OCc3ccccc3)ccc21",
    "Activity (%)": 65
  },
  {
    "MOL": "O=C(O)CCCCn1ccc2cc(OCc3ccccc3)ccc21",
    "Activity (%)": 90
  },
  {
    "MOL": "CC(=O)CCc1c[nH]c2ccc(OCc3ccccc3)cc12",
    "Activity (%)": 44
  },
  {
    "MOL": "c1ccc(COc2ccc3[nH]ccc3c2)cc1",
    "Activity (%)": 36
  },
  {
    "MOL": "FC1(F)CCC(COc2ccc3[nH]ccc3c2)CC1",
    "Activity (%)": 59
  },
  {
    "MOL": "COC(=O)C(=O)c1c[nH]c2ccc(OCc3ccccc3)cc12",
    "Activity (%)": 61
  },
  {
    "MOL": "N[C@@H](Cc1c[nH]c2ccc(OCc3ccccc3)cc12)C(=O)O",
    "Activity (%)": 87
  },
  {
    "MOL": "c1ccc(COc2ccc3[nH]ncc3c2)cc1",
    "Activity (%)": 59
  },
  {
    "MOL": "CC(C)COc1ccc2[nH]ccc2c1",
    "Activity (%)": 56
  },
  {
    "MOL": "c1ccc(CCCOc2ccc3[nH]ccc3c2)cc1",
    "Activity (%)": 42
  }
]
